assayExplanation: Vero cells viability counterscreen for qRT-PCR qHTS assay of selected Zika virus inhibitors
experimentalParameters: CellTiter-Glo ATP luminescence, 24 h; series mostly up to 41.8 µM
Results filed as inconclusive are left out. Active and inactive are the calls of the source. Calls follow the shape of the dose curve; as a rule, active = well fitted cell-killing curve with a large enough effect; inconclusive = small, poorly fitted or top-dose-only effect, or another doubt; inactive = flat fitted curve, though single readings scatter.
Assign a class; possible classes are yes (1) (active), no (0) (inactive)

Field: example entries. Status: answers known.
CC(C)c1ccc2c(c1)c(SC(C)(C)C)c(CC(C)(C)C(=O)O)n2Cc1ccc(Cl)cc1: yes (1)
Oc1cccc(-c2c3nc(c(-c4cccc(O)c4)c4ccc([nH]4)c(-c4cccc(O)c4)c4nc(c(-c5cccc(O)c5)c5ccc2[nH]5)CC4)C=C3)c1: no (0)

Now consider a different compound.
Hello, I am checking results. What call was entered for O=C(Nc1ccc(Oc2ccc(Cl)cc2)c(Cl)c1)c1cc(I)cc(I)c1O ? no (0)

Source: PubChem BioAssay AID1347170
